The values you see were collected from PubChem BioAssay.

I'd appreciate it if you could supply log fold change Tl+ flux values for the items below.
Tested on: F380Y
Assay: modulators of BK channel variants, profiling panel, selectivity assay, cell-based, U2OS BacMam, thallium flux, beta subunits (AID 1259406);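 note: initial slope of Thallos dye fluorescence rise after thallium is added; log ratio against the mean of 0.3% DMSO vehicle wells on the same plate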
Settings: at 30 µM
Write the number on its own, no unit after it.

Reported log fold change Tl+ flux for "CCOC(=O)Cn1c(-c2c(Cl)cccc2Cl)noc1=O" was 0.00248

Reported log fold change Tl+ flux for "C=C1/C(=C\C=C2/CCC[C@]3(C)[C@@H]([C@H](C)CCCC(C)(C)O)CC[C@@H]23)C[C@@H](O)C[C@@H]1O" was 0.103

Reported log fold change Tl+ flux for "CCC(C)(C)N=C(NC#N)Nc1cccnc1" was 0.00312

Reported log fold change Tl+ flux for "O=C1CSC(=S)N1N=Cc1cccnc1" was 0.0409

Reported log fold change Tl+ flux for "O=C(CN1CCOCC1)Nc1ccccc1Sc1nccc(C(F)(F)F)n1" was 0.0122

Reported log fold change Tl+ flux for "CN1CCN(CC(=O)Nc2ccccc2Oc2ccccc2)CC1" was 0.0235

###

System: R275C/Slo1WT/beta2
Experiment: modulators of BK channel variants, profiling panel, selectivity assay, cell-based, U2OS BacMam, thallium flux, beta subunits (AID 1259406);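 note: initial slope of Thallos dye fluorescence rise after thallium is added; log ratio against the mean of 0.3% DMSO vehicle wells on the same plate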
Conditions: at 30 µM
OBSERVABLE: log fold change Tl+ flux
Write the number on its own, no unit after it.

Reported log fold change Tl+ flux for CC(C)CC(NC(=O)C(COC(C)(C)C)NC(=O)C(Cc1ccc(O)cc1)NC(=O)C(CO)NC(=O)C(Cc1c[nH]c2ccccc12)NC(=O)C(Cc1cnc[nH]1)NC(=O)C1CCC(=O)N1)C(=O)N[C@@H](CCCN=C(N)N)C(=O)N1CCCC1C(=O)NNC(N)=O (stereo partly specified) was 0.0919

Reported log fold change Tl+ flux for COC(=O)C=C1NCC(O)CNC1=O (stereo unspecified) was 0.0313

Reported log fold change Tl+ flux for O=S1(=O)CC(N2CCOCC2)c2ccccc21 (stereo unspecified) was -0.0351

Reported log fold change Tl+ flux for "O=C(O)CSCC(=O)Nc1ccc(-c2nc3ccccc3s2)cc1" was -0.022

Reported log fold change Tl+ flux for "Cc1cc(C(=O)ON=C(N)c2ccc([N+](=O)[O-])o2)no1" was -0.0342

Reported log fold change Tl+ flux for "CC(=O)[C@@]1(O)CC[C@H]2[C@@H]3C[C@H](C)C4=CC(=O)CC[C@]4(C)[C@H]3CC[C@@]21C" was -0.0331

Reported log fold change Tl+ flux for "CC(C)c1ccc2c(c1)c(SC(C)(C)C)c(CC(C)(C)C(=O)O)n2Cc1ccc(Cl)cc1" was 0.027

Reported log fold change Tl+ flux for CC(Cc1ccc(O)c(O)c1)(NN)C(=O)O (stereo unspecified) was -0.00513

Reported log fold change Tl+ flux for "C=CCNC(SC)=C(C#N)C(N)=O" was -0.00229

Reported log fold change Tl+ flux for "COC(=O)Nc1nc2ccc(C(=O)c3ccc(F)cc3)cc2[nH]1" was 0.00461

Reported log fold change Tl+ flux for "COC(=O)c1cc(C)nc(Sc2n[nH]c(-c3cc(Cl)cc(Cl)c3)n2)n1" was 0.059

Reported log fold change Tl+ flux for CC(=O)OCC(OC(C)=O)C(OC(C)=O)C(OC(C)=O)C(C#N)OC(C)=O (stereo unspecified) was -0.0705

Reported log fold change Tl+ flux for "C[C@@H](c1ncncc1F)[C@](O)(Cn1cncn1)c1ccc(F)cc1F" was -0.0193

Reported log fold change Tl+ flux for CCOC(=O)CCSC1=NC(c2cccs2)C(C(=O)OCC)=C(C)N1 (stereo unspecified) was -0.0325

Reported log fold change Tl+ flux for "CS(=O)(=O)Nc1ccc(N2CCN(c3ccc(C(F)(F)F)cn3)CC2)nc1" was 0.0171

Reported log fold change Tl+ flux for "CC(=O)c1cc2cc(Cl)cc(Cl)c2oc1=O" was -0.0243

Reported log fold change Tl+ flux for "CCOC(=O)c1ccc(N2CCOCC2)c(N=Cc2cc(Cl)cc(Cl)c2O)c1" was 0.0153

Reported log fold change Tl+ flux for "Nc1ncnc2c1ncn2[C@@H]1O[C@H](CO)C[C@@H]1O" was 0.0268

Reported log fold change Tl+ flux for "COC(=O)c1sc(-c2ccc(Cl)cc2)cc1NC(=O)c1ccc2nsnc2c1" was 0.0403

Reported log fold change Tl+ flux for CS(=O)(=NS(=O)(=O)c1ccc(OC(F)(F)F)cc1)c1ccccc1 (stereo unspecified) was 0.0068

Reported log fold change Tl+ flux for "COC(=O)c1cnn(C(=O)Nc2c(C)cccc2C)c1C(OC)OC" was 0.00968
